- assayMethodText: in vitro
- particulars: dog, MDCK
- Description: Apparent permeability in RRCK cells
measuredAttribute: Papp (nm/s)

Examples with their reported Papp follow.
[[record]]
compound = "CCOC(=O)N1CC/C(=C2/c3ccc(Cl)cc3CCc3cccnc32)C(O)C1 (stereo not given)"
quantitativereadout = 220

[[record]]
compound = "CCOC(=O)N1C=C/C(=C2\\c3ccc(Cl)cc3CCc3cccnc32)CC1"
quantitativereadout = 400

[[record]]
compound = "CCOC(=O)N1CCC(=C2c3ccc(Cl)cc3CCc3cc(O)cnc32)CC1"
quantitativereadout = 110


a: CCOC(=O)N1CC(O)C(=C2c3ccc(Cl)cc3CCc3cccnc32)C(O)C1 (stereo not given)
b: CCOC(=O)N1CCC(=C2c3ccc(Cl)cc3CCc3ccc[n+](C)c32)CC1
stdin: Kindly identify the item with the lower Papp figure among these two: a and b Refer to your chosen entry by its label in the reply.
stdout: b

* * *

- assayMethodText: in vitro
- particulars: human, hepatocytes
- Description: Intrinsic clearance in human hepatocytes at 0.2 nmol assessed per million cells up to 240 mins in presence of NADPH by LC-MS/MS analysis
measuredAttribute: hepatocyte CLint at 4 h (µL/min/1e6 cells)

Examples with their reported hepatocyte CLint at 4 h follow.
[[record]]
compound = "CCOC(=O)N1CCC(=C2c3ccc(Cl)cc3CC(F)c3cccnc32)CC1 (centres undefined)"
measuredattribute = "hepatocyte CLint at 4 h"
quantitativereadout = 32

[[record]]
compound = "CCOC(=O)N1CCC2(CC1)OC21c2ccc(Cl)cc2CCc2cccnc21 (centres undefined)"
measuredattribute = "hepatocyte CLint at 4 h"
quantitativereadout = 26.2

[[record]]
compound = "CCOC(=O)N1CCC(=C2c3ccc(Cl)cc3C(O)Cc3cccnc32)CC1 (centres undefined)"
measuredattribute = "hepatocyte CLint at 4 h"
quantitativereadout = 40

[[record]]
compound = "OC1Cc2cc(Cl)ccc2C(=C2CCNCC2)c2ncccc21 (centres undefined)"
measuredattribute = "hepatocyte CLint at 4 h"
quantitativereadout = 3.14

[[record]]
compound = "CCOC(=O)N1CCC(=C2c3ccc(Cl)cc3CCc3ccc[n+]([O-])c32)CC1"
measuredattribute = "hepatocyte CLint at 4 h"
quantitativereadout = 17.8


1: CCOC(=O)N1CCC(=C2c3ccc(Cl)cc3C=Cc3cccnc32)CC1
2: CCOC(=O)N1C(O)CC(=C2c3ccc(Cl)cc3CCc3cccnc32)CC1O (centres undefined)
3: CCOC(=O)N1CCC(=C2c3ccc(Cl)cc3CC(O)c3cccnc32)CC1 (centres undefined)
4: CCOC(=O)N1CCC(=C2c3ccc(Cl)cc3CCc3ccc[n+](C)c32)CC1
5: CCOC(=O)N1CCC(=C2c3ccc(Cl)cc3CCc3cc(O)cnc32)CC1
stdin: Ordering criterion: hepatocyte CLint at 4 h; begin with the maximum. Answer by listing the labels in the order asked for.
stdout: 5, 3, 2, 1, 4
(5: 96 µL/min/1e6 cells, 3: 61.5 µL/min/1e6 cells, 2: 14 µL/min/1e6 cells, 1: 9 µL/min/1e6 cells, 4: 6 µL/min/1e6 cells)

1: CCOC(=O)N1CCC(=C2c3ccc(Cl)cc3CCc3c(CO)ccnc32)CC1
2: CCOC(=O)N1CC/C(=C2/c3ccc(Cl)cc3CCc3cccnc32)C(O)C1 (centres undefined)
stdin: Kindly identify the item with the lower hepatocyte CLint at 4 h figure among these two: 1 and 2 Refer to your chosen entry by its label in the reply.
stdout: 2

A: CCOC(=O)N1CCC(=C2c3ccc(Cl)cc3CCc3ccc(C(F)F)nc32)CC1
B: CCOC(=O)N1CC(O)C(=C2c3ccc(Cl)cc3CCc3cccnc32)C(O)C1 (centres undefined)
C: CCOC(=O)N1C=C/C(=C2\c3ccc(Cl)cc3CC(O)c3cccnc32)CC1 (centres undefined)
D: CCOC(=O)N1CCC2(CC1)OC21c2ccc(Cl)cc2CCc2ccc[n+]([O-])c21 (centres undefined)
stdin: Hi! Can you put these in order of hepatocyte CLint at 4 h, lowest number first? Answer by listing the labels in the order asked for.
stdout: D, B, A, C
